# experiment.notes: qHTS assay to identify small molecule antagonists of the farnesoid-X-receptor (FXR) signaling pathway - cell viability counter screen (AID 743221); also: nearly all actives have a fitted effect of over 50% in size
# condition.context: FXR-bla HEK293T viability, CellTiter-Glo luminescence, 16 h; series mostly up to 62.6 µM
Records with an inconclusive call do not appear. Activity calls are given as the source filed them. Calls follow the shape of the dose curve; as a rule, active = well fitted cell-killing curve with a large enough effect in the repeat runs (not every such curve was filed as active); inconclusive = weak or mixed curves, or effect the other way; inactive = no such curve, though single readings can be large or run the other way.
Pick one and only one: class 1 = active, class 0 = inactive

Example results:
INSERT INTO assay_data (compound_structure, label_value) VALUES
  ('Cc1ccccc1CCl', 'class 0'),
  ('O=NN1CCNCC1', 'class 0'),
  ('COP(=S)(OC)Oc1ccc([N+](=O)[O-])cc1Cl', 'class 0'),
  ('O=C(O)C(F)(F)C(F)(F)C(F)(F)C(F)(F)C(F)(F)C(F)(F)C(F)(F)C(F)(F)C(F)(F)C(F)(F)F', 'class 0'),
  ('C/C(=C\c1ccccc1)[N+](=O)[O-]', 'class 1');

State the result this test recorded for COC(N)=O . class 0

State the result this test recorded for CN(C)c1ccc(N(C)C)cc1 . class 0

State the result this test recorded for C=CC(=O)OC(C)(C)C . class 0

State the result this test recorded for Cn1sc(Cl)cc1=O . class 0

###

# experiment.notes: qHTS assay to identify aromatase inhibitors - cell viability counter screen (AID 743084);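 also: cells stimulated with testosterone during compound exposure; nearly all actives have a fitted effect of over 55% in size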
# condition.context: MCF-7 aro ERE viability, CellTiter-Fluor, 24 h; series mostly up to 70.3 µM
Results filed as inconclusive are left out. Active and inactive are the calls of the source. Calls follow the shape of the dose curve; as a rule, active = well fitted cell-killing curve with a large enough effect in the repeat runs; inconclusive = weak or mixed curves, or effect the other way; inactive = no such curve, though single readings can be large or run the other way.
Pick one and only one: active, inactive

Example results:
INSERT INTO results (compound, label_value) VALUES
  ('CCCCCCCCOC(=O)c1ccc(C(=O)OCCCCCCCC)c(C(=O)OCCCCCCCC)c1', 'inactive'),
  ('CCCC(Cn1cncn1)c1ccc(Cl)cc1Cl (centres undefined)', 'inactive'),
  ('CCCCCCC#N', 'inactive'),
  ('CCCCNP(N)(N)=S', 'inactive'),
  ('CC(C)(Cl)[N+](=O)[O-]', 'inactive');

State the result this test recorded for O=[N+]([O-])C(Br)(CO)CO . active

State the result this test recorded for C=CC(=O)OCC(C)C . inactive

State the result this test recorded for C(=NC1CCCCC1)=NC1CCCCC1 . inactive

State the result this test recorded for COc1nn(CSP(=S)(OC)OC)c(=O)s1 . active

State the result this test recorded for Clc1ccc(C(OCCN2CCCCC2)c2ccccc2)cc1 (centres undefined) . inactive

State the result this test recorded for O=C1NCN(c2ccccc2)C12CCN(CCCOc1ccc(F)cc1)CC2 . inactive

State the result this test recorded for N#C/C(N)=C(/N)C#N . inactive

State the result this test recorded for ClC=C(Cl)Cl . inactive

State the result this test recorded for CCOP(=S)(OCC)Oc1nc(Cl)c(Cl)cc1Cl . inactive

###

# experiment.notes: qHTS assay to identify small molecule antagonists of the estrogen receptor beta (ER-beta) signaling pathway - cell viability counter screen (AID 1259382); also: nearly all actives have a fitted effect of over 55% in size
# condition.context: ER-beta-UAS-bla HEK293T viability, CellTiter-Glo luminescence, 16 h; series mostly up to 92.4 µM
# Text: U.S. Tox21 Program National Center for Advancing Translational Sciences [NCATS] NIH Chemical Genomics Center [NCGC] U.S. Environmental Protection Agency [EPA] National Institutes of Environmental Health Sciences [NIEHS] National Toxicology Program [NTP] U.S. Food and Drug Administration [FDA] Tox21 Assay Overview: Estrogen receptor (ER), a nuclear hormone receptor, plays an important role in development, metabolic homeostasis and reproduction. […]
Records with an inconclusive call do not appear. The source made the active and inactive calls. The call rests on the fitted dose curve; in most records, active means well fitted cell-killing curve with a large enough effect in the repeat runs; inconclusive means weak or mixed curves; inactive means flat fitted curve, though single readings scatter.
Pick one and only one: active, inactive

Example results:
INSERT INTO assay_data (molecule, label_value) VALUES
  ('CO/N=C(/C(=O)OC)c1ccccc1COc1ccccc1C', 'inactive'),
  ('[O-][Cl+]O', 'inactive'),
  ('ClCC(Br)CBr (centres undefined)', 'inactive'),
  ('CCCCC(CC)COP(=O)(Oc1ccccc1)Oc1ccccc1 (centres undefined)', 'inactive'),
  ('Clc1ccc(C(OCCN2CCCCC2)c2ccccc2)cc1 (centres undefined)', 'inactive'),
  ('COc1c(C(C)(C)C)cc([N+](=O)[O-])c(C)c1[N+](=O)[O-]', 'inactive');

State the result this test recorded for Cc1c(F)c(F)c(COC(=O)C2C(/C=C(\Cl)C(F)(F)F)C2(C)C)c(F)c1F (centres undefined) . inactive

State the result this test recorded for OC(c1ccc(Cl)cc1)(c1ccc(Cl)cc1)c1cccnc1 . inactive

State the result this test recorded for Cc1ccc(-c2c(Cl)nc(C#N)n2S(=O)(=O)N(C)C)cc1 . active

State the result this test recorded for CC(=O)C(C)(C)C . inactive
